- Test system: Rhodobacter capsulatus
- assay.details: Activity of Rhodobacter capsulatus NADH-ubiquinone oxidoreductase
endpoint.name: Vmax (µmol/min/mg)
Write the number in µmol/min/mg without appending the unit.

- compound: "COC1=C(OC)C(=O)C(CCCCCN=[N+]=[N-])=C(C)C1=O"
  Vmax, µmol/min/mg: 0.35
- compound: "CC1=CC(=O)C(N=[N+]=[N-])=C(C)C1=O"
  Vmax, µmol/min/mg: 0.59
- compound: "CC1=CC(=O)C=C(C)C1=O"
  Vmax, µmol/min/mg: 0.35
- compound: "COC1=C(OC)C(=O)C(CC=C(C)C)=C(C)C1=O"
  Vmax, µmol/min/mg: 0.67
- compound: "COC1=C(OC)C(=O)C(N=[N+]=[N-])=C(C)C1=O"
  Vmax, µmol/min/mg: 0.58

Turning now to a further compound:
[ask] Identify the reported Vmax for the following entry. "COC1=C(OC)C(=O)C(C)=CC1=O"
[reply] 0.37

###

- System: Rhodobacter capsulatus
- assay.details: Activity of Rhodobacter capsulatus NADH-ubiquinone oxidoreductase
endpoint.name: Km (µM)
Write the number in µM without appending the unit.

Below, 3 molecules whose answers are already recorded.
- compound: "COC1=C(OC)C(=O)C(CCCCCN=[N+]=[N-])=C(C)C1=O"
  endpoint.name: "Km"
  value.units: "µM"
  quantitative.result: 21
- compound: "COC1=C(OC)C(=O)C(N=[N+]=[N-])=C(C)C1=O"
  endpoint.name: "Km"
  value.units: "µM"
  quantitative.result: 52
- compound: "CC1=CC(=O)C=C(C)C1=O"
  endpoint.name: "Km"
  value.units: "µM"
  quantitative.result: 100

[ask] Identify the reported Km for the following entry. "COC1=C(OC)C(=O)C(CC=C(C)C)=C(C)C1=O"
[reply] 23

[ask] Identify the reported Km for the following entry. "COC1=C(OC)C(=O)C(C)=CC1=O"
[reply] 75

[ask] Identify the reported Km for the following entry. "CC1=CC(=O)C(N=[N+]=[N-])=C(C)C1=O"
[reply] 86

###

- Test system: Bacillus subtilis
- assay.details: Activity of Bacillus subtilis Succinate-ubiquinone oxidoreductase
Kind request: treat 3 as inclusive, so Vmax (microM/min/mg) at 3 or higher is YES, anything lower is NO.

- compound: "COC1=C(OC)C(=O)C(C)=CC1=O"
  cat: "NO"

Shifting focus to the molecule that follows.
[ask] Hi team, for "COC1=C(OC)C(=O)C(CC=C(C)C)=C(C)C1=O" , is the recorded Vmax (microM/min/mg) at or above 3?
[reply] NO

###

- Tested on: Escherichia coli
- assay.details: Activity of Escherichia coli WrbA
This listing pairs compounds with measured Vmax (microM/min/mg).
# respond with the number and nothing more

Below, 3 compounds whose answers are already recorded.
- compound: "COC1=C(OC)C(=O)C(N=[N+]=[N-])=C(C)C1=O"
  Vmax (microM/min/mg): 724
- compound: "CC1=CC(=O)C=C(C)C1=O"
  Vmax (microM/min/mg): 546
- compound: "CC1=CC(=O)C(N=[N+]=[N-])=C(C)C1=O"
  Vmax (microM/min/mg): 464

Turning now to a further compound:
[ask] Identify the reported Vmax (microM/min/mg) for the following entry. "COC1=C(OC)C(=O)C(C)=CC1=O"
[reply] 684

###

This listing pairs compounds with measured Vmax (microM/min/mg).
- Test system: Bacillus subtilis
- assay.details: Activity of Bacillus subtilis Succinate-ubiquinone oxidoreductase
# respond with the number and nothing more

- compound: "COC1=C(OC)C(=O)C(CCCCCN=[N+]=[N-])=C(C)C1=O"
  target: "Bacillus subtilis"
  quantitative.result: 2.57
- compound: "COC1=C(OC)C(=O)C(N=[N+]=[N-])=C(C)C1=O"
  target: "Bacillus subtilis"
  quantitative.result: 3.72
- compound: "CC1=CC(=O)C(N=[N+]=[N-])=C(C)C1=O"
  target: "Bacillus subtilis"
  quantitative.result: 4.72

[ask] Identify the reported Vmax (microM/min/mg) for the following entry. "CC1=CC(=O)C=C(C)C1=O"
[reply] 3.99
